# Protocol summary: Tmax in Sprague-Dawley rat at 100 mg/kg, ip by UPLC analysis
# Assay type: ADME, organism-based
# Settings: in vivo
Metric name: Tmax (min)
State just the number; it will be interpreted in min.

Incoming: Value lookup for Tmax; key = "O=C(O)c1nccn1Cc1ccncc1"
Outgoing: 9

----------
# Protocol summary: Solubility of the compound in water
# Assay type: physicochemical
Metric name: solubility

• O=C(O)c1nccn1Cc1ccncc1 = > 20 mg/mL

Please examine the following record next.
Incoming: Given the compound "Nc1nc2ccc(Cn3ccnc3C(=O)O)cc2s1" , what is its reported solubility?
Outgoing: < 2.5 mg/mL

----------
# Protocol summary: Inhibition of bacterial VIM-2 (27 to 266 residues) expressed in Escherichia coli Transetta (DE3) using FC-5 as substrate preincubated with enzyme for 10 mins followed by substrate addition by fluorescence based analysis
# Set-up: species or system Bacteria
Listing of entries alongside the reported IC50.
Give a bare numeral; the unit µM is implied.

Worked examples follow.
- CC(C(=O)O)n1ccnc1C(=O)O (stereo not given): 52.4
- Cc1cn(Cc2ccccc2)c(C(=O)O)n1: 10.7
- O=C(O)c1nccn1Cc1cc(Br)cs1: 0.43
- O=C(O)c1nccn1Cc1ccccn1: 5.54
- O=C(O)c1nccn1C1CCC1: 11.8

Incoming: # get_value(readout='IC50', item= "O=C(O)c1nccn1Cc1cccnc1Cl" )
Outgoing: 0.77

Incoming: I have this compound here, "Nc1ccc(Cn2ccnc2C(=O)O)cc1" , and I need its recorded IC50.
Outgoing: 30.2

----------
Documented IC50 across a set of molecules
# Protocol summary: Inhibition of bacterial IMP-1 (1 to 246 residues) expressed in Escherichia coli Transetta (DE3) using FC-5 as substrate preincubated with enzyme for 10 mins followed by substrate addition by fluorescence based analysis
# Design: species or system Bacteria
Field format: number, assumed µM, no unit text.

As a guide, the following entries are already answered.
- C=CCCn1cc(C)nc1C(=O)O: 4.05
- O=C(O)c1nc(-c2ccccc2)cn1Cc1ccccc1: 9.29
- Nc1nc2c(Cn3ccnc3C(=O)O)cccc2s1: 217
- O=C(O)c1nc(C2CC2)cn1Cc1ccccc1: 17.8
- O=C(O)c1nccn1C1CCC1: 161
- NCc1ccc(Cn2ccnc2C(=O)O)cc1: 75.5

Now look at this one.
Incoming: Entry "O=C(O)c1nccn1Cc1ccc(C(F)(F)F)cc1" : reported IC50 = ?
Outgoing: 53.7

----------
This section presents molecules with their documented MIC values.
# Test system: Pseudomonas aeruginosa
# Protocol summary: Potentiation of meropenem-induced antibacterial activity against Pseudomonas aeruginosa 5621 expressing VIM-2 assessed as meropenem MIC at 100 ug/ml incubated for 18 to 20 hrs in presence of meropenem by CLSI based broth microtiter dilution method (reference value: 64 ug/ml)
# Assay type: functional
# Settings: dose 100 µg/ml, time 18-20 hrs
Quick reminder: number only, in µg/mL, skip the unit.

- O=C(O)c1nccn1Cc1ccncc1: 32
- COc1ccc(Cn2ccnc2C(=O)O)cc1: 64
- O=C(O)c1nccn1Cc1cc(Br)cc(Br)c1: 32
- Nc1nc2ccc(Cn3ccnc3C(=O)O)cc2s1: 64

Incoming: What measured MIC goes with "O=C(O)c1nccn1Cc1cc(Br)cs1" ?
Outgoing: 64

----------
# Tested on: Escherichia coli
# Protocol summary: Potentiation of meropenem-induced antibacterial activity against Escherichia coli C1542 expressing VIM-2 assessed as fold reduction in meropenem MIC at 10 ug/ml incubated for 18 to 20 hrs by CLSI based broth microtiter dilution method
# Format: functional
# Settings: dose 10 µg/ml; time 18-20 hrs
Metric name: fold change (FC)
// response body must contain only the number

Before answering, review these 3 worked examples.
- O=C(O)c1nccn1Cc1cc(Br)cs1: 4
- C=CCCn1c(C)cnc1C(=O)O: 8
- Cc1cnc(C(=O)O)n1Cc1ccccc1: 32

Consider now this further molecule.
Incoming: Would you kindly share the measured fold change (FC) for "NCc1ccc(Cn2ccnc2C(=O)O)cc1" ?
Outgoing: 1

----------
# Test system: Escherichia coli
# Protocol summary: Potentiation of meropenem-induced antibacterial activity against Escherichia coli C1580 expressing VIM-2 assessed as fold reduction in meropenem MIC at 10 ug/ml incubated for 18 to 20 hrs by CLSI based broth microtiter dilution method
# Type: functional
# Settings: dose 10 µg/ml; time 18-20 hrs
This listing pairs compounds with measured fold change (FC).
// keep it numeric: no unit symbol after the value

Previously resolved entries follow.
* N#Cc1ccc(Cn2ccnc2C(=O)O)cc1 | 32
* O=C(O)c1nccn1Cc1cc(Br)cc(Br)c1 | 8

Incoming: For the compound "O=C(O)c1nccn1Cc1ccncc1" , what fold change (FC) is on record?
Outgoing: 32

Incoming: Find the recorded fold change (FC) belonging to "Cc1cnc(C(=O)O)n1Cc1ccccc1" and report it.
Outgoing: 32

Incoming: I'd like to know its fold change (FC). The compound in question is "O=C(O)c1nccn1Cc1ccccc1"
Outgoing: 2

Incoming: Endpoint output: fold change (FC) of "NCc1ccc(Cn2ccnc2C(=O)O)cc1" . Value?
Outgoing: 2

Incoming: Could you share which fold change (FC) value was measured for "COc1ccc(Cn2ccnc2C(=O)O)cc1" ?
Outgoing: 32

Incoming: // returns reported fold change (FC) for input "O=C(O)c1nccn1Cc1ccc(O)cc1"
Outgoing: 8

Incoming: Look at this compound and give its reported fold change (FC). "C=CCCn1ccnc1C(=O)O"
Outgoing: 1

Incoming: Look at this compound and give its reported fold change (FC). "C=CCCn1c(C)cnc1C(=O)O"
Outgoing: 4

Incoming: # fold change (FC) lookup, item "O=C(O)c1nccn1Cc1cc(Br)cs1"
Outgoing: 8

Incoming: Find the recorded fold change (FC) belonging to "Nc1nc2c(Cn3ccnc3C(=O)O)cccc2s1" and report it.
Outgoing: 32

----------
# Protocol summary: Toxicity in ip dosed ICR mouse assessed as maximum tolerated dose administered for 14 days
# Assay type: organism-based
# Settings: in vivo, time 14 day
Metric name: MTD at 336 h

Incoming: Query: MTD at 336 h; subject: "O=C(O)c1nccn1Cc1ccncc1"
Outgoing: ≤ 2000 mg/kg

----------
# Test system: Escherichia coli
# Protocol summary: Potentiation of meropenem-induced antibacterial activity against Escherichia coli C1541 expressing VIM-2 assessed as meropenem MIC at 10 ug/ml incubated for 18 to 20 hrs by CLSI based broth microtiter dilution method (reference value: 16 ug/ml)
# Assay type: functional
# Settings: dose 10 µg/ml, time 18-20 hrs
Below: a set of entries, each annotated with reported MIC.
API: value field is a number in µg/mL; no unit string.

Below: 4 compounds and their reported MIC.
• O=C(O)c1ncc(-c2ccccc2)n1Cc1ccccc1 = 0.5
• COc1ccc(Cn2ccnc2C(=O)O)cc1 = 0.5
• O=C(O)c1nccn1Cc1cc(Br)cs1 = 2
• Nc1nc2c(Cn3ccnc3C(=O)O)cccc2s1 = 0.5

Incoming: Any idea what its MIC is? The compound is "C=CCCn1c(C)cnc1C(=O)O"
Outgoing: 1

Incoming: Requested field: MIC. Item: "C=CCCn1ccnc1C(=O)O"
Outgoing: 16

Incoming: Record request: MIC value, item "O=C(O)c1nccn1Cc1ccccc1"
Outgoing: 16

Incoming: Item under review: "O=C(O)c1nccn1Cc1ccc(O)cc1" . Reported MIC?
Outgoing: 1

Incoming: Query (compound): "NCc1ccc(Cn2ccnc2C(=O)O)cc1" ; field requested: MIC
Outgoing: 8

Incoming: Name the recorded MIC for "O=C(O)c1nccn1Cc1cc(Br)cc(Br)c1" .
Outgoing: 0.5

----------
# Protocol summary: Inhibition of bacterial NDM-1 (1 to 270 residues) expressed in Escherichia coli Transetta (DE3) using FC-5 as substrate preincubated with enzyme for 10 mins followed by substrate addition by fluorescence based analysis
# Parameters: species or system Bacteria
# Lookup of reported IC50 keyed by entry

Consider the reported IC50 for these compounds:
- Nn1ccnc1C(=O)O: > 300 µM
- COC(=O)C(C)n1ccnc1C(=O)O (stereo not given): > 300 µM
- N#Cc1ccc(Cn2ccnc2C(=O)O)cc1: 227 µM
- O=C(O)c1nccn1Cc1ccc(Cl)c(Cl)c1: 16.4 µM
- Cn1cc(Cn2ccnc2C(=O)O)cn1: > 300 µM
- O=C(O)c1nccn1Cc1ccncc1: > 300 µM
- O=C(O)c1nccn1Cc1cc(Br)cc(Br)c1: 98.9 µM
- Cn1ccnc1C(=O)O: > 300 µM

Incoming: IC50 for "O=C(O)c1nccn1C1CCC1" ?
Outgoing: > 300 µM

Incoming: Can you share its IC50? I mean this compound: "C=CCCn1c(C)cnc1C(=O)O"
Outgoing: 144 µM

Incoming: GET /values?readout=IC50&item= "O=C(O)c1nccn1Cc1ccccn1"
Outgoing: > 300 µM

Incoming: Fill in the blank: the reported IC50 of "O=C(O)c1nccn1C1CNC1" is ____.
Outgoing: > 300 µM

Incoming: Field request: IC50 | item: "C=CCCn1cc(C)nc1C(=O)O"
Outgoing: > 300 µM

Incoming: Bench note: what IC50 did "O=C(O)c1nccn1Cc1cccc([N+](=O)[O-])c1" show?
Outgoing: > 300 µM

Incoming: Which IC50 value is on record for "O=C(O)c1nccn1Cc1cccs1" ?
Outgoing: > 300 µM

Incoming: Give its IC50 value. Item: "O=C(O)c1nccn1Cc1ccc(O)cc1"
Outgoing: 118 µM

Incoming: Sample "O=C(O)c1nc(C2CC2)cn1Cc1ccccc1" — what was its IC50?
Outgoing: > 300 µM

Incoming: // query IC50 value for entry "CCc1ccc(Cn2ccnc2C(=O)O)cc1"
Outgoing: > 300 µM

Incoming: May I ask what IC50 has been recorded for "O=C(O)c1nccn1Cc1ccc([N+](=O)[O-])cc1" ?
Outgoing: 114 µM

Incoming: What does the record list as IC50 for "CC(C)Cn1ccnc1C(=O)O" ?
Outgoing: > 300 µM

Incoming: Suppose we examine the compound "O=C(O)c1nccn1C1CC1" ; what IC50 value has been reported?
Outgoing: > 300 µM

Incoming: Report IC50 for C[S+]([O-])Cn1ccnc1C(=O)O (stereo not given) please.
Outgoing: > 300 µM

Incoming: # get_value(readout='IC50', item= "Cc1cnc(C(=O)O)n1Cc1ccccc1" )
Outgoing: 29.7 µM

Incoming: Which IC50 reading was recorded for the compound "O=C(O)c1nccn1CCn1ccnn1" ?
Outgoing: > 300 µM

meta.source: ChEMBL document CHEMBL5154646
